study target: SauBCA (β-carbonic anhydrase from Staphylococcus aureus) (Staphylococcus aureus)
Sequence (A0AAJ4SIE8 1-189): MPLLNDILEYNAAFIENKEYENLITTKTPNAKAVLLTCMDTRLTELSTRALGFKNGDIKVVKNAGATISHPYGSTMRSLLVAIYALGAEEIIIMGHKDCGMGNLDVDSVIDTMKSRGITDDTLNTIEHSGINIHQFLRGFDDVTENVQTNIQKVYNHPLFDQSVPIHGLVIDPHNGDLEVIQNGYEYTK
run description: Stopped-flow CO2 hydration inhibition assay, SauBCA
Assay type: biochemical
condition summary: read-out: Ki SauBCA
parameter: pKi
# pKi is unitless: minus log10 of the molar concentration; print number only

INSERT INTO assay_data (molecule, meas_value) VALUES
  ('Cc1ccc(-c2cc(C(F)(F)F)nn2-c2ccc(S(N)(=O)=O)cc2)cc1', 6.06),
  ('CC1(C)O[C@@H]2[C@@H](CO[C@@]3(COS(N)(=O)=O)OC(C)(C)O[C@@H]23)O1', 6.33),
  ('CC(=O)/N=c1/sc(S(N)(=O)=O)nn1C [MZA, methazolamide]', 6.06),
  ('Cc1onc(-c2ccccc2)c1-c1ccc(S(N)(=O)=O)cc1', 6.29),
  ('CCN[C@H]1CN(CCCOC)S(=O)(=O)c2sc(S(N)(=O)=O)cc21 [BRZ, brinzolamide]', 6.09);

[in] May I ask what pKi has been recorded for `Nc1nccc(Nc2ccc(S(N)(=O)=O)cc2)n1` ?
[out] 6.04

[in] Consider the molecule NS(=O)(=O)Cc1noc2ccccc12 [ZNS, zonisamide] and give its measured pKi.
[out] 5.34
